- TARGET: Beta-3 adrenergic receptor (Homo sapiens)
- Sequence (P13945 whole entry): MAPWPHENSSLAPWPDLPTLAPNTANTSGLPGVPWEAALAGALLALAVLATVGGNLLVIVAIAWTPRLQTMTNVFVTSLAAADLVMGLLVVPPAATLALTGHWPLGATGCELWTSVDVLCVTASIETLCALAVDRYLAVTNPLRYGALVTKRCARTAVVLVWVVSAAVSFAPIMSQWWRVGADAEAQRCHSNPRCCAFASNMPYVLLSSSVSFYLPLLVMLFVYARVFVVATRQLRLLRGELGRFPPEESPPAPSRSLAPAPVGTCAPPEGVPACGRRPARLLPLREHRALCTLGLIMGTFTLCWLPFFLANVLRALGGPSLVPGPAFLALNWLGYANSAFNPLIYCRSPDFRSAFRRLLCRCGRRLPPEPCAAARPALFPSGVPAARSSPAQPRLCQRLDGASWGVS
- EXPERIMENT DESCRIPTION: In vitro agonistic activity assessed by measurement of cAMP accumulation level in CHO cells expressing human beta3-AR receptor
- Assay type: functional, cell-based
READOUT TYPE: EC50
Note: a bare number is incomplete; add the unit.

Look up and report measured EC50 for this entry: O=C(NCc1ccc(F)cc1)N1CCC(Nc2ccc(CCNC[C@H](O)COc3ccc(O)cc3)cc2)CC1
41 nM

Supply recorded EC50 for CCCCCCCCNC(=O)N1CCC(Nc2ccc(CCNC[C@H](O)COc3ccc(O)cc3)cc2)CC1 here.
8 nM

----------
For each of the molecules below, state its pEC50.
- TARGET: Beta-1 adrenergic receptor (Homo sapiens, UniProt P08588)
- Sequence (P08588 whole entry): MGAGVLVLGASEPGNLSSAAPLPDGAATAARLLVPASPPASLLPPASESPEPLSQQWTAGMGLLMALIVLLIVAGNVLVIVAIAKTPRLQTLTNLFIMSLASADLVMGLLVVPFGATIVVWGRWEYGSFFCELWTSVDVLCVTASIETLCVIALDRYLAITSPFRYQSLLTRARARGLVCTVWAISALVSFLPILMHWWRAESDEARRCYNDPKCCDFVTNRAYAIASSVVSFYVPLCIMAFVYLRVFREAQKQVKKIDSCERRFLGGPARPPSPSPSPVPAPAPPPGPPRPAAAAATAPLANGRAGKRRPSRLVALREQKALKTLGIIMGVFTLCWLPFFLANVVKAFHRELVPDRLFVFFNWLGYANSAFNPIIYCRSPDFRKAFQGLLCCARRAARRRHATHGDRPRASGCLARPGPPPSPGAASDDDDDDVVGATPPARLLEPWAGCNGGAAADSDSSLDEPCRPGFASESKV
- EXPERIMENT DESCRIPTION: In vitro agonistic activity assessed by measurement of cAMP accumulation level in CHO cells expressing human beta1-AR receptor
Here pEC50 is given on a logarithmic scale as minus log10 of the concentration in mol/L.

Provide pEC50 value for the following molecule: CCCCCCCCNC(=O)N1CCC(Nc2ccc(CCNC[C@H](O)COc3ccc(O)c4c3CCC(=O)N4)cc2)CC1
7.06

Using known records, supply pEC50 for O=C(NCCCC1CCCC1)N1CCC(Nc2ccc(CCNC[C@H](O)COc3ccc(O)cc3)cc2)CC1
6.73

Please report pEC50 for the following molecule: CCCCCCCCNC(=O)N1CCC(Nc2ccc(CCNC[C@H](O)COc3ccc(O)cc3)cc2)CC1
6.21

Assign pEC50 to the following record: CS(=O)(=O)Nc1cc(OC[C@@H](O)CNCCc2ccc(NC3CCN(C(=O)NCc4cc(F)ccc4F)CC3)cc2)ccc1O
6.37

----------
- TARGET: UniProtKB P08588
- EXPERIMENT DESCRIPTION: In vitro agonistic activity assessed by measurement of cAMP accumulation level in CHO cells expressing human beta1-AR receptor
Provide the reported EC50 of each item.
Lab book: enter the figure in nM, no units written.

For O=C(NCc1ccccc1F)N1CCC(Nc2ccc(CCNC[C@H](O)COc3ccc(O)cc3)cc2)CC1 , write its EC50.
260

Fill in EC50 for record O=C(NCc1ccc(F)cc1)N1CCC(Nc2ccc(CCNC[C@H](O)COc3ccc(O)cc3)cc2)CC1
109

Recall and state the measured EC50 for CS(=O)(=O)Nc1cc([C@@H](O)CNCCc2ccc(NC3CCN(C(=O)NCc4cc(F)ccc4F)CC3)cc2)ccc1O .
2640

----------
- TARGET: Beta-1 adrenergic receptor (Homo sapiens, UniProt P08588)
- EXPERIMENT DESCRIPTION: In vitro agonistic activity assessed by measurement of cAMP accumulation level in CHO cells expressing human beta1-AR receptor
READOUT TYPE: pEC50
Keep it numeric: pEC50 is minus log10 of the concentration in mol/L.

Please indicate pEC50 recorded for O=C(NCc1cc(F)ccc1F)N1CCC(Nc2ccc(CCNC[C@H](O)COc3ccc(O)cc3)cc2)CC1
6.28

Tell us which pEC50 value is on record for NC(=O)N1CCC(Nc2ccc(CCNC[C@H](O)COc3ccc(O)cc3)cc2)CC1
6.29

Specify pEC50 for O=C(NC1CCCCC1)N1CCC(Nc2ccc(CCNC[C@H](O)COc3ccc(O)cc3)cc2)CC1 and stop.
7.07

Read off the recorded pEC50 for CNC(=O)N1CCC(Nc2ccc(CCNC[C@H](O)COc3ccc(O)cc3)cc2)CC1
6.46

Report pEC50 for O=C(NCc1ccc(Cl)cc1Cl)N1CCC(Nc2ccc(CCNC[C@H](O)COc3ccc(O)cc3)cc2)CC1
6.60

Specify measured pEC50 for O=C(NCc1c(F)cccc1F)N1CCC(Nc2ccc(CCNC[C@H](O)COc3ccc(O)cc3)cc2)CC1 .
6.12

Dear colleague, please send me the reported pEC50 for CCN(CC)C(=O)N1CCC(Nc2ccc(CCNC[C@H](O)COc3ccc(O)cc3)cc2)CC1 when you can.
6.79

Report pEC50 for O=C(NCc1ccc(F)cc1F)N1CCC(Nc2ccc(CCNC[C@H](O)COc3ccc(O)cc3)cc2)CC1
6.34

Report measured pEC50; entry is CC(C)NC(=O)N1CCC(Nc2ccc(CCNC[C@H](O)COc3ccc(O)cc3)cc2)CC1
6.03
